All figures here come from patent US20090117192A1.

Protocol Description: Meloxicam solubility enhancement test of sodium methoxide (saturation, HPLC)
Kindly state Meloxicam solubility for each of the entries shown.
Answers are plain numbers, in mg/mL.

- Cc1cnc(NC(=O)C2=C(O)c3ccccc3S(=O)(=O)N2C)s1 [Comparative Example 5, Meloxicam]: 92.7
- Cc1cnc(NC(=O)C2=C(O)c3ccccc3S(=O)(=O)N2C)s1 [Comparative Example 2, Meloxicam]: 0.43
- Cc1cnc(NC(=O)C2=C(O)c3ccccc3S(=O)(=O)N2C)s1 [Comparative Example 1, Meloxicam]: 0.06

Alright, here's another compound for you.
q: // returns reported Meloxicam solubility for input Cc1cnc(NC(=O)C2=C(O)c3ccccc3S(=O)(=O)N2C)s1 [Comparative Example 4, Meloxicam]
a: 21.91
